Catalogue of IC50 readings, one per entry.
SYSTEM_UNDER_TEST: NRAS WT (Homo sapiens (Human), UniProt P01111+P62937)
Sequence (P01111 whole entry): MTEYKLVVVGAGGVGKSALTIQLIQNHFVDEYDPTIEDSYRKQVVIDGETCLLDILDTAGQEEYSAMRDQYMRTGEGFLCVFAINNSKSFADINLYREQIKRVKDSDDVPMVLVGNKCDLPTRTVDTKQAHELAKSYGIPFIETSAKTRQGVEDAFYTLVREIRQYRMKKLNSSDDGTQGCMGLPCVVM
Sequence (P62937 whole entry): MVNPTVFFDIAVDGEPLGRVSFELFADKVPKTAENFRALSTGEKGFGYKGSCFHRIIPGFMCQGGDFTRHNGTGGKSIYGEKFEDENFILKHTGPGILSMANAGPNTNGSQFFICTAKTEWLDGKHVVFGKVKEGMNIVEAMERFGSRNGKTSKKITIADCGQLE
EXPERIMENT: Ras-Raf (BRAF RBD) disruption / FRET / MOA assay, NRAS WT
Type: biochemical
CONDITION_PARAMETERS: read-out: IC50* NRAS WT FRET data

{"COMPOUND": "C=CC(=O)N1CC2(CCN2C(=O)N(C)[C@H](C(=O)N[C@H]2Cc3nc(n(C)n3)-c3ccc4c(c3)c(c(-c3cccnc3[C@H](C)OC)n4CC)CC(C)(C)COC(=O)[C@@H]3CCCN(N3)C2=O)C(C)C)C1 (atropisomer, axis not shown) [Example A612]", "SYSTEM_UNDER_TEST": "NRAS WT (Homo sapiens (Human), UniProt P01111+P62937)", "IC50": "10 to 100 nM"}
{"COMPOUND": "C=CC(=O)N1CC[C@H](C(=O)N(C)[C@H](C(=O)N[C@H]2Cc3cc(O)cc(c3)-c3ccc4c(c3)c(c(-c3cc(CN(C)C)cnc3[C@H](C)OC)n4CC)CC(C)(C)COC(=O)[C@@H]3CCCN(N3)C2=O)C(C)C)C1 (atropisomer, axis not shown) [Example A537]", "SYSTEM_UNDER_TEST": "NRAS WT (Homo sapiens (Human), UniProt P01111+P62937)", "IC50": "10 to 100 nM"}

====

SYSTEM_UNDER_TEST: KRAS G12V (Homo sapiens (Human), UniProt P01116+P62937, G12V)
Sequence (P01116-2 other isoform, or with tags, fused parts or gaps G12V): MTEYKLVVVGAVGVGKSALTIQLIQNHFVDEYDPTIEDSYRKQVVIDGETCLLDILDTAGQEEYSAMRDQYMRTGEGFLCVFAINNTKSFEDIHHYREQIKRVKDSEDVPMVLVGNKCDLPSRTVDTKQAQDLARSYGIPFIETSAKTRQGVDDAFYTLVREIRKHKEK
Sequence (P62937 whole entry): as the sequence (P62937 whole entry) above
EXPERIMENT: Ras-Raf (BRAF RBD) disruption / FRET / MOA assay, KRAS G12V
Assay type: biochemical
CONDITION_PARAMETERS: read-out: IC50* KRAS G12V FRET data
PROPERTY: IC50

{"MOLECULE": "CCn1c(-c2ccccc2CN(C)C)c2c3cc(ccc31)-c1cc(O)cc(c1)C[C@H](NC(=O)[C@@H](C(C)C)N(C)C(=O)c1ncc(NC(=O)/C=C/CN(C)C)n1C)C(=O)N1CCC[C@H](N1)C(=O)OCC(C)(C)C2", "SYSTEM_UNDER_TEST": "KRAS G12V (Homo sapiens (Human), UniProt P01116+P62937, G12V)", "RESULT_VALUE": "> 10 µM"}
{"MOLECULE": "C=CC(=O)N1CCO[C@H]2CN(C(=O)N(C)[C@H](C(=O)N[C@H]3Cc4coc(n4)-c4ccc5c(c4)c(c(-c4cccnc4[C@H](C)OC)n5CC(F)(F)F)CC(C)(C)COC(=O)[C@@H]4CCCN(N4)C3=O)C(C)C)C[C@H]21 (atropisomer, axis not shown)", "SYSTEM_UNDER_TEST": "KRAS G12V (Homo sapiens (Human), UniProt P01116+P62937, G12V)", "RESULT_VALUE": "1 to 10 µM"}
{"MOLECULE": "C=CC(=O)N1CC[C@H](C(=O)N(C)[C@H](C(=O)N(C)[C@H]2Cc3cc(O)cc(c3)-c3ccc4c(c3)c(c(-c3cccnc3COC)n4CC)CC(C)(C)COC(=O)[C@@H]3CCCN(N3)C2=O)C(C)C)C1", "SYSTEM_UNDER_TEST": "KRAS G12V (Homo sapiens (Human), UniProt P01116+P62937, G12V)", "RESULT_VALUE": "> 10 µM"}
{"MOLECULE": "CO[C@@H](C)c1ncccc1-c1c2c3cc(ccc3n1CC(F)(F)F)N1CCO[C@@H](C[C@H](NC(=O)[C@@H](COC3CN(C(=O)C#CC(C)(C)N(C)C)C3)C(C)C)C(=O)N3CCC[C@H](N3)C(=O)OCC(C)(C)C2)C1 (atropisomer, axis not shown)", "SYSTEM_UNDER_TEST": "KRAS G12V (Homo sapiens (Human), UniProt P01116+P62937, G12V)", "RESULT_VALUE": "1 to 10 µM"}
